Reference source for all entries: paper PMC3218832

# test-target: C-Rel subunit;p50 subunit (Homo sapiens;Homo sapiens, UniProt Q04864;P19838 1-285;7-356)
# Sequence (Q04864 1-285, chain 1 of 2): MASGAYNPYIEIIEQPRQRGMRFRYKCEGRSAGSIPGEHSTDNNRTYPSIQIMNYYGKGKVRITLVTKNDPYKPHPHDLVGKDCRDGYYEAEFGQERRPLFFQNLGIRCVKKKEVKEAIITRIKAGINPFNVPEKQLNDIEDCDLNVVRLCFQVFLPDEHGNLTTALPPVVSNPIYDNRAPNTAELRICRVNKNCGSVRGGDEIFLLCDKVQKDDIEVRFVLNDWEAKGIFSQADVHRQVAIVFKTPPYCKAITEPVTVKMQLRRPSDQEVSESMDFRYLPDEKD
# Sequence (P19838 7-356, chain 2 of 2): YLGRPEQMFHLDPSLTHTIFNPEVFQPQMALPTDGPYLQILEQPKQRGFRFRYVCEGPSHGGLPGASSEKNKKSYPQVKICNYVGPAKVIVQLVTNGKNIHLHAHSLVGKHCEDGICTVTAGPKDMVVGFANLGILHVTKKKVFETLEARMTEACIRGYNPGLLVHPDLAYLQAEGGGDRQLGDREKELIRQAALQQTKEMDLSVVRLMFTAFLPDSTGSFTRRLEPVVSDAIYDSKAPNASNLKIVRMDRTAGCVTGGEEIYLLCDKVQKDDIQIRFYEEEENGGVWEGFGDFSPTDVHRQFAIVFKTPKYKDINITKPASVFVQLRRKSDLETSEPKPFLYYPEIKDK
# run-description: protein binding microarray; high values mean tight binding
# applied-conditions: dsDNA, one strand shown
Could you mark each record Yes if its binding signal falls strictly under -0.9 z-score, and No if it equals or exceeds it?

Inquiry: Regarding GAAAACATCCC , kindly confirm whether its binding signal is beneath -0.9 z-score.
Reply text: No

Inquiry: Item GAAGTCTTCCC : binding signal beneath -0.9 z-score, strictly?
Reply text: No

Inquiry: Lab log: compare recorded binding signal with -0.9 z-score; is it strictly lower for CGATAGCTCCT ?
Reply text: Yes

Inquiry: Strictly below -0.9 z-score in binding signal? AAGAGGCTCCC
Reply text: Yes

Inquiry: Here's an entry: AAGTAGACCCT . Is its binding signal below -0.9 z-score?
Reply text: Yes

Inquiry: # TODO verify binding signal < -0.9 z-score strictly for this sequence: CAAGGGTCCCT
Reply text: No

Inquiry: Confirm or reject: binding signal of CAGTTTGCCCC lies strictly below -0.9 z-score
Reply text: No

Inquiry: A record lists CAGAAGGCCCC . Is its binding signal below -0.9 z-score?
Reply text: No

Inquiry: Answer whether the sequence CGATTAACCCT has binding signal strictly less than -0.9 z-score
Reply text: No

* * *

# test-target: RELB subunit;p52 subunit (Homo sapiens;Homo sapiens, UniProt Q01201;Q00653 120-401;4-332)
# Sequence 1: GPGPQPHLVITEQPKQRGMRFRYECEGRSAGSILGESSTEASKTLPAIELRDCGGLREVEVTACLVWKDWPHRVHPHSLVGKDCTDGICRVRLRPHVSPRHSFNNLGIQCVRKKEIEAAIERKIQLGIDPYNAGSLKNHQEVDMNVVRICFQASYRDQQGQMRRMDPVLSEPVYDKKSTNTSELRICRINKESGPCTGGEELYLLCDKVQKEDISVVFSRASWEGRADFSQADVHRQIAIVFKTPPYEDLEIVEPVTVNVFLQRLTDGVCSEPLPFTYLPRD
# Sequence 2: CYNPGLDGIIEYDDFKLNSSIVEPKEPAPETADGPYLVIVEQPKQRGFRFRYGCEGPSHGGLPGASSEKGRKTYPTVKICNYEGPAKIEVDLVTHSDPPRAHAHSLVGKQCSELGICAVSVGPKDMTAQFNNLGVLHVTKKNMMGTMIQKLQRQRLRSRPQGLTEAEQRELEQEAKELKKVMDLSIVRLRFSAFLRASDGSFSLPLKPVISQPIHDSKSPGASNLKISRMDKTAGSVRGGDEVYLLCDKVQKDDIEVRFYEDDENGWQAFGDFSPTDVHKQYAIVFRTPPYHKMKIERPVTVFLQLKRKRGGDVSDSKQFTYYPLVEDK
# run-description: protein binding microarray; high values mean tight binding
# applied-conditions: dsDNA, one strand shown
Hi! Could you tag entries with binding signal below -0.3 z-score as Yes, and those at or above as No? Much appreciated.

Inquiry: Problem: For the sequence GAAGACCTCCT , is binding signal under -0.3 z-score?
Reply text: Yes

Inquiry: Consider CGAGAAATCCC . Does its binding signal lie strictly below -0.3 z-score?
Reply text: No

Inquiry: Is it true that binding signal reported for GAATTCCTCCC is less than -0.3 z-score?
Reply text: No

Inquiry: Threshold test, binding signal < -0.3 z-score: GGAGATATCCT
Reply text: Yes

Inquiry: A record lists AAATTGTCCCT . Is its binding signal below -0.3 z-score?
Reply text: No

Inquiry: Lab note: confirm whether the reported binding signal for this sequence is below -0.3 z-score, equality not counting. sequence: AGATTACCCCC
Reply text: No

Inquiry: In the record for GAAGGTCTCCT , is binding signal less than -0.3 z-score?
Reply text: Yes

Inquiry: Could you please tell me whether binding signal recorded for GGAGACGCCCT is less than -0.3 z-score?
Reply text: Yes

Inquiry: Say whether its binding signal is strictly beneath -0.3 z-score. Entry: AGAAGGGTCCC
Reply text: No

Inquiry: Is it true that binding signal reported for GAATGGATCCC is less than -0.3 z-score?
Reply text: Yes

Inquiry: For AGGAGCCTCCC , is the recorded binding signal below the cut-off of -0.3 z-score?
Reply text: Yes

Inquiry: Confirm or reject: binding signal of AGGGACGTCCT lies strictly below -0.3 z-score
Reply text: No

Inquiry: Below -0.3 z-score on binding signal? Entry AGAATAATCCT
Reply text: Yes

Inquiry: Does AAGATTCTCCT have binding signal strictly under -0.3 z-score?
Reply text: Yes
